# reported parasite growth, % of DMSO control; entries follow
# assay-remarks: qHTS profiling of the MIPE4 collection as inhibitors of Plasmodium falciparum (3D7) proliferation (AID 743344);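 further: scaled between DMSO vehicle wells and 0.29 µM artemisinin as full inhibition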
# test-parameters: P. falciparum 3D7 in erythrocytes, SYBR Green DNA fluorescence, 72 h; at 28.5 µM unless noted
Numbers only; they are read as %.

compound | meas-value
O=c1[nH]c2ccccc2n1CCCN1CCC(n2c(=O)[nH]c3cc(Cl)ccc32)CC1 | 26.8

Prompt: // parasite growth, % of DMSO control lookup, key: CN1CCN(C(=O)O[C@H]2c3nccnc3C(=O)N2c2ccc(Cl)cn2)CC1
Completion: 95.4

Prompt: // parasite growth, % of DMSO control lookup, key: O=NN(CCCl)C(=O)NC1CCCCC1
Completion: 91.7

Prompt: // parasite growth, % of DMSO control lookup, key: CC(C)CC(N(C)C)C1(c2ccc(Cl)cc2)CCC1 (stereo unspecified)
Completion: 90.3

Prompt: // parasite growth, % of DMSO control lookup, key: COc1ccc(C(=O)c2c(C)n(CCN3CCOCC3)c3ccccc23)cc1
Completion: 90.6

Prompt: // parasite growth, % of DMSO control lookup, key: Cc1sc2c(c1C)C(c1ccc(Cl)cc1)=N[C@@H](CC(=O)OC(C)(C)C)c1nnc(C)n1-2
Completion: 16.3

Source listed as PubChem BioAssay (NCATS).
